Numbers sourced from patent US12048695B2.

ASSAY EXPLANATION: Permeability across Caco-2 monolayers
Type: in vitro ADME
TEST PARAMETERS: human, Caco-2; 260 μM
MEASURED ENDPOINT: efflux ratio at 260 μM

CHEM SMILES | MEASURED ENDPOINT | VALUE MEASURED
O=C(c1cc(Cc2n[nH]c(=O)c3ccccc23)ccc1F)N1CCN(C(=O)C2CC2)CC1 | efflux ratio at 260 μM | 2.3

====

ASSAY EXPLANATION: Solubility in real and simulated gastrointestinal media
Type: physicochemical
TEST PARAMETERS: Fasted State Simulated Intestinal Fluid (FaSSIF), fassif, thermodynamic from solid; read-out: Equilibrium solubility, 24 hr
MEASURED ENDPOINT: solubility thermodynamic at 24 hr (µg/mL)

MOLECULE | MEASURED ENDPOINT | VALUE MEASURED
O=C(c1cc(Cc2n[nH]c(=O)c3ccccc23)ccc1F)N1CCN(C(=O)C2CC2)CC1 [Compound 1 (Form A)] | solubility thermodynamic at 24 hr | 130
